Sourced from ChEMBL document CHEMBL5512695

# ASSAY DETAILS: Stability in SGF assessed as half life
# Assay type: ADME

[
  {
    "CPD SMILES": "O=C(COc1ccc(Br)cc1)Nc1ccc2nc[nH]c2c1",
    "half-life": "> 50 h"
  }
]

* * *

# ASSAY DETAILS: Clearance in SD […] at 20 mg/kg, po measured for 24 hrs
# Type: ADME, organism-based
# RECORDED CONDITIONS: in vivo
MEASURE NAME: CL/F (mL/min/kg)

[
  {
    "CPD SMILES": "O=C(COc1ccc(Br)cc1)Nc1ccc2nc[nH]c2c1",
    "READING": 14.8
  }
]

* * *

# ASSAY DETAILS: Tmax in SD […] at 10 mg/kg, iv measured for 24 hrs
# Type: ADME, organism-based
# RECORDED CONDITIONS: in vivo
MEASURE NAME: Tmax (min)

[
  {
    "CPD SMILES": "O=C(COc1ccc(Br)cc1)Nc1ccc2nc[nH]c2c1",
    "MEASURE NAME": "Tmax",
    "READING": 18
  }
]

* * *

# ASSAYED TARGET: P2Y purinoceptor 12 (Homo sapiens, UniProt Q9H244)
# Sequence (Q9H244 whole entry): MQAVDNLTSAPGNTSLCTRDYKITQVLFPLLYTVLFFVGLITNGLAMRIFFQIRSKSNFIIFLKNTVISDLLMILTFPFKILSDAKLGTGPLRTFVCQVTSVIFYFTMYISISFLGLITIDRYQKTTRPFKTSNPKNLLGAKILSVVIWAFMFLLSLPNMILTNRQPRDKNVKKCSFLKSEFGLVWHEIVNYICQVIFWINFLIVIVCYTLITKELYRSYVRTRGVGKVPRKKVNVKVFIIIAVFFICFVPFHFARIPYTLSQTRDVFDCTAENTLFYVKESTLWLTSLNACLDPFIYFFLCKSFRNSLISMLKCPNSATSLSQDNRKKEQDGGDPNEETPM
# ASSAY DETAILS: Inhibition of human P2Y12R stably expressed in 2-MeSADP -stimulated HEK293 cells incubated for 0.5 hrs by cAMP production assay
pIC50: −log10 of the molar value.
MEASURE NAME: pIC50

[
  {
    "CPD SMILES": "O=C(COc1ccc(Br)cc1)Nc1ccc2nc[nH]c2c1",
    "MEASURE NAME": "pIC50",
    "READING": "< 4.00"
  }
]

* * *

# ASSAYED TARGET: Cytochrome P450 2C9 (Homo sapiens)
# Sequence (P11712 whole entry): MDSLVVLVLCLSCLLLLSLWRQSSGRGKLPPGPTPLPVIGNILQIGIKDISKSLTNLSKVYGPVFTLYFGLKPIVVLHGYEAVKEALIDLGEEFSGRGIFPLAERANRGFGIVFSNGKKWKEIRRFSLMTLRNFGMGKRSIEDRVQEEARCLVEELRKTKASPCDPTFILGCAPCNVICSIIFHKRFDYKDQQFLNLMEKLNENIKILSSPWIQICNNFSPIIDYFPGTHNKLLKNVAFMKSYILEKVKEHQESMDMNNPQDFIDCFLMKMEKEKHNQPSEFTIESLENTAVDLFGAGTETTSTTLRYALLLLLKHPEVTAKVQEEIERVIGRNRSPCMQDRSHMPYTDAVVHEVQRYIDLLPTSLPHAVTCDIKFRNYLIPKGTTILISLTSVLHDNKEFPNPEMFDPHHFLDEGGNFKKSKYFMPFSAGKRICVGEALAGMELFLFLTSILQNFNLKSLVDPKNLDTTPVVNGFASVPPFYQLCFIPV
MEASURE NAME: IC50

[
  {
    "CPD SMILES": "O=C(COc1ccc(Br)cc1)Nc1ccc2nc[nH]c2c1",
    "MEASURE NAME": "IC50",
    "READING": "> 50 µM"
  }
]

* * *

# ASSAY DETAILS: Half life in SD […] at 10 mg/kg, iv measured for 24 hrs
# Type: ADME, organism-based
# RECORDED CONDITIONS: in vivo
MEASURE NAME: half-life

[
  {
    "CPD SMILES": "O=C(COc1ccc(Br)cc1)Nc1ccc2nc[nH]c2c1",
    "MEASURE NAME": "half-life",
    "READING": "7.6 h"
  }
]

* * *

# ASSAYED TARGET: P2Y purinoceptor 14 (Homo sapiens)
# Sequence (Q15391 whole entry): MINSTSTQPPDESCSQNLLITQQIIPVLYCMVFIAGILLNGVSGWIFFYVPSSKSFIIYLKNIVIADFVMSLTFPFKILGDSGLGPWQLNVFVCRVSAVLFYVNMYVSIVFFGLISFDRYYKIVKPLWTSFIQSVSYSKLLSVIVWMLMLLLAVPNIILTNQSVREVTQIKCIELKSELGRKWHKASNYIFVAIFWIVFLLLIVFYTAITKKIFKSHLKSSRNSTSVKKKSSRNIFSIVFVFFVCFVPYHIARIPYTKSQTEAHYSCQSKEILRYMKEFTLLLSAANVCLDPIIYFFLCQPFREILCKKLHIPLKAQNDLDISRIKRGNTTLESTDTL
# ASSAY DETAILS: Antagonist activity at human P2Y14R stably expressed in HEK293 cells assessed as inhibition of forskolin-[…] cAMP production incubated for 30 mins by cAMP-Glo assay
pIC50: −log10 of the molar value.
MEASURE NAME: pIC50

[
  {
    "CPD SMILES": "O=Cc1ccc(OCC(=O)Nc2ccc3nc[nH]c3c2)cc1",
    "ASSAYED TARGET": "P2Y purinoceptor 14 (Homo sapiens)",
    "MEASURE NAME": "pIC50",
    "READING": 8.89
  }
]

* * *

# ASSAY DETAILS: Oral bioavailability in SD […] at 20 mg/kg measured for 24 hrs
# Type: ADME, organism-based
# RECORDED CONDITIONS: in vivo

[
  {
    "CPD SMILES": "O=C(COc1ccc(Br)cc1)Nc1ccc2nc[nH]c2c1",
    "bioavailability / %": 75
  }
]
